System: CD8F1 mice, subcutaneous mammary adenocarcinoma, T/C%
assay-overview: NCI In Vivo Anticancer Drug Screen. Data for tumor model Mammary Adenocarcinoma CD8F1 (subcutaneous) in CD8F1
run-conditions: endpoint: median tumor weight (est.); dose: 12.5 mg/kg/injection; schedule: Q07DX005 (ip); vehicle: saline with Tween-80; higher = larger tumour
Results filed as inconclusive are left out.

{"smiles-structure": "Cc1cc(NCCCCCCCNc2cc(C)nc3cc(N)ccc23)c2ccc(N)cc2n1", "T/C": "79 % of control"}
{"smiles-structure": "CC(=O)O[C@@H]1[C@@H](O)C2=C3[C@]4(C)[C@@H]1C(C)(C)C(=O)C[C@@H]4[C@]3(O)[C@H](OC(C)=O)[C@@]1(C[C@@H]1C)C2=O", "T/C": "117 % of control"}
{"smiles-structure": "O=C(CO)c1ccc([N+](=O)[O-])cc1", "T/C": "112 % of control"}
{"smiles-structure": "O=C1N(Cl)C(=O)C(c2ccc(Cl)cc2)(c2ccc(Cl)cc2)N1Cl", "T/C": "98 % of control"}
{"smiles-structure": "CCCCc1ccc2nc(NC(=O)OC)[nH]c2c1", "T/C": "55 % of control"}
